# target: T1, human PD-L1 expressed on CHO cells (human, UniProt Q9NZQ7 19-290)
# T1 construct: whole, on cells; Target on CHO cells stably expressing PD-L1; also called huPD-L1
# T1 sequence (Q9NZQ7 19-290): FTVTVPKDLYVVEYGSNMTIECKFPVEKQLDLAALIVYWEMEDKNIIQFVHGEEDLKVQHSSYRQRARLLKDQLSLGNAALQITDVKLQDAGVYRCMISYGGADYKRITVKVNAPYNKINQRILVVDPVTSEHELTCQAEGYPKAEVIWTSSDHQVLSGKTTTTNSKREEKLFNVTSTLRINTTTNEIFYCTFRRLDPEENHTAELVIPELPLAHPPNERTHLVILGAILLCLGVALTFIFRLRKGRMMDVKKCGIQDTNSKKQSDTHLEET
# assay name: flow cytometry; MFI on PD-L1 cells over MFI on CD28 (Jurkat) cells at 33.3 nM
Reported values of Ratio of PDL1:CD28 for individual entries
Supply the numeric figure in ratio, leaving out any unit text.

Recorded Ratio of PDL1:CD28, per entry:
binder="CD80 E35D/D46V/M47V/V68M/L85Q IgV-Fc (Fc fusion, not shown: small tags and cut ends; a dimerising Fc or GST) VIHVTKEVKEVATLSCGHNVSVEELAQTRIYWQKDKKMVLTMMSGVVNIWPEYKNRTIFDITNNLSIMILALRPSDEGTYECVVQKYEKDAFKREHLAEVTLSVKAD" reported_metric="Ratio of PDL1:CD28" unit_name=ratio quantitative_result=79.4
binder="CD80 E35D/M47V/V68M/L85Q/K89N IgV-Fc (Fc fusion, not shown: small tags and cut ends; a dimerising Fc or GST) VIHVTKEVKEVATLSCGHNVSVEELAQTRIYWQKDKKMVLTMMSGDVNIWPEYKNRTIFDITNNLSIMILALRPSDEGTYECVVQKYENDAFKREHLAEVTLSVKAD" reported_metric="Ratio of PDL1:CD28" unit_name=ratio quantitative_result=49.1
binder="CD80 E35D/D46V/M47V/N48K/V68M IgV-Fc (Fc fusion, not shown: small tags and cut ends; a dimerising Fc or GST) VIHVTKEVKEVATLSCGHNVSVEELAQTRIYWQKDKKMVLTMMSGVVKIWPEYKNRTIFDITNNLSIMILALRPSDEGTYECVVLKYEKDAFKREHLAEVTLSVKAD" reported_metric="Ratio of PDL1:CD28" unit_name=ratio quantitative_result=23.9
binder="CD80 M47V/N48K/V68M IgV-Fc (Fc fusion, not shown: small tags and cut ends; a dimerising Fc or GST) VIHVTKEVKEVATLSCGHNVSVEELAQTRIYWQKEKKMVLTMMSGDVKIWPEYKNRTIFDITNNLSIMILALRPSDEGTYECVVLKYEKDAFKREHLAEVTLSVKAD" reported_metric="Ratio of PDL1:CD28" unit_name=ratio quantitative_result=22.6
binder="CD80 E35D/M47V/N48K/K89N IgV-Fc (Fc fusion, not shown: small tags and cut ends; a dimerising Fc or GST) VIHVTKEVKEVATLSCGHNVSVEELAQTRIYWQKDKKMVLTMMSGDVKIWPEYKNRTIFDITNNLSIVILALRPSDEGTYECVVLKYENDAFKREHLAEVTLSVKAD" reported_metric="Ratio of PDL1:CD28" unit_name=ratio quantitative_result=9.5
binder="CD80 E35D/M47V/N48K/V68M/L85Q IgV-Fc (Fc fusion, not shown: small tags and cut ends; a dimerising Fc or GST) VIHVTKEVKEVATLSCGHNVSVEELAQTRIYWQKDKKMVLTMMSGDVKIWPEYKNRTIFDITNNLSIMILALRPSDEGTYECVVQKYEKDAFKREHLAEVTLSVKAD" reported_metric="Ratio of PDL1:CD28" unit_name=ratio quantitative_result=88.8

(Q) Any idea what its Ratio of PDL1:CD28 is? The binder is CD80 M47V/N48K/K89N IgV-Fc (Fc fusion, not shown: small tags and cut ends; a dimerising Fc or GST) VIHVTKEVKEVATLSCGHNVSVEELAQTRIYWQKEKKMVLTMMSGDVKIWPEYKNRTIFDITNNLSIVILALRPSDEGTYECVVLKYENDAFKREHLAEVTLSVKAD
(A) 6.5

(Q) Any idea what its Ratio of PDL1:CD28 is? The binder is CD80 E35D/N48K/K89N IgV-Fc (Fc fusion, not shown: small tags and cut ends; a dimerising Fc or GST) VIHVTKEVKEVATLSCGHNVSVEELAQTRIYWQKDKKMVLTMMSGDMKIWPEYKNRTIFDITNNLSIVILALRPSDEGTYECVVLKYENDAFKREHLAEVTLSVKAD
(A) 14

(Q) Any idea what its Ratio of PDL1:CD28 is? The binder is CD80 N48K/V68M IgV-Fc (Fc fusion, not shown: small tags and cut ends; a dimerising Fc or GST) VIHVTKEVKEVATLSCGHNVSVEELAQTRIYWQKEKKMVLTMMSGDMKIWPEYKNRTIFDITNNLSIMILALRPSDEGTYECVVLKYEKDAFKREHLAEVTLSVKAD
(A) 6.4

Reference source: patent US20210130436A1
